tested_system: T1, extracellular domain (ECD) of human epidermal growth factor receptor 2 (HER2) (Homo sapiens, UniProt P04626)
T1 construct: human epidermal growth factor receptor 2 (HER2), extracellular domain; also called HER2/ECD
assay_remarks: SPR; BIAcore T200; HER2/ECD immobilised on a CM5 chip by amine coupling to 1000 RU; IgG flowed in PBST (0.05% Tween 20) at 30 uL/min; regeneration 10 mM glycine pH 1.5; global fit to a 1:1 binding model
experimental_conditions: both partners purified
pKd: −log10 of the molar value.
recorded_metric: pKd

binder="GH2-8 IgG (antibody, V domains shown, source: HEK293-F, transient transfection, purified (Protein A, Superdex 200)) VH: GVQLVESGGGLVQPGGSLRLSCAASGFTIGSSGIHWVRQAPGKGLEWVAGIWPYWGSTYYADSVKGRFTISADTSKNTAYLQMNSLRAEDTAVYYCARFGVGYHYYMDYWGQGTLVTVSS VL: DIQMTQSPSSLSASVGDRVTITCRASQDVGWWVAWYQQKPGKAPKLLISGATGLYSGVPSRFSGSGSGTDFTLTISSLQPEDFATYYCQQSWDSPITFGQGTKVEIK" recorded_metric=pKd test_result=9.59
binder="GH2-104 IgG (antibody, V domains shown, source: HEK293-F, transient transfection, purified (Protein A, Superdex 200)) VH: EVQLVESGGGLVQPGGSLRLSCAASGFTIDSWGIHWVRQAPGKGLEWVAGIGPFGGYTSYADSVKGRFTISADTSKNTAYLQMNSLRAEDTAVYYCARFGDYIDGVMDYWGQGTLVTVSS VL: DIQMTQSPSSLSASVGDRVTITCRASQDVNSNVAWYQQKPGKAPKLLIYGSPSLYSGVPSRFSGSGSGTDFTLTISSLQPEDFATYYCQQYYDWPLTFGQGTKVEIK" recorded_metric=pKd test_result=8.99
